Provide the recorded normalized growth for the entries that follow.
Test: chemical genetic growth profiling, strain panel (AID 1159580);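 also: tested at 20 µM; growth read once vehicle control cultures reached saturation at 30 °C; 1 = growth at the plate median or of vehicle wells; lower values mean less growth of the strain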
Settings: S. cerevisiae deletion strains, growth OD, locus YDR162C, strain NBP2, active compounds read low
In all, about 5,500 compounds went through this assay and about 2,000 (36%) were called active. About 18% were inconclusive and are not listed. This is one part of the list.
One number for each entry.

INSERT INTO measurements (molecule, observedvalue) VALUES
  ('Clc1ccc(C(c2ccccc2Cl)C(Cl)Cl)cc1 (stereo unspecified)', 1.02);

Below are some molecules; for each one, tell me its normalized growth.
1. CC(=O)O[C@H]1C[C@@H](OC(C)=O)C(C)(C)C2C[C@@H](O)[C@]3(C)C(CC[C@@]4(C)[C@H](c5ccoc5)OC(=O)[C@H]5O[C@]543)[C@]21C (stereo partly specified)
2. NC(N)=NCCCCN=C(N)N
3. CC(=O)O[C@@H]1CC2C(C)(C)[C@H](O)CC[C@]2(C)C2CC[C@@]3(C)[C@H](c4ccoc4)OC(=O)C4OC43[C@@]21C (stereo partly specified)

// result
1. 0.948
2. 0.948
3. 0.999

###

Experiment: chemical genetic growth profiling, strain panel (AID 1159580);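 also: tested at 20 µM; growth read once vehicle control cultures reached saturation at 30 °C; 1 = growth at the plate median or of vehicle wells; lower values mean less growth of the strain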
Conditions: S. cerevisiae deletion strains, growth OD, locus YMR307W, strain GAS1
In all, about 5,500 compounds went through this assay and about 2,000 (36%) were called active. Inconclusive results (about 18%) are left out. Cut-off read from the data, not from the text of the source: active = normalized growth mostly below about 0.91 (no sharp cut-off); inconclusive = no clear call, values can overlap the other calls; inactive = mostly above about 0.92. This is one part of the list.
Outcome (select one): active, inactive

INSERT INTO assay_data (compound, assignedclass) VALUES
  ('CCCNC(=O)NS(=O)(=O)c1ccc(Cl)cc1', 'inactive'),
  ('C[C@]12CCC3c4ccc(O)cc4CCC3C1CCC2=O (some centres not stated)', 'inactive');

Please examine the following record next.
// query Identify the outcome logged in this assay for the compound shown: "COc1ccc(-c2cc(=O)c3c(OC)cc(OC)cc3o2)cc1"
// result inactive

###

Assay: chemical genetic growth profiling, strain panel (AID 1159580);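 also: tested at 20 µM; growth read once vehicle control cultures reached saturation at 30 °C; 1 = growth at the plate median or of vehicle wells; lower values mean less growth of the strain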
Details: S. cerevisiae deletion strains, growth OD, locus YPL106C, strain sse1, active compounds read low
Hit rate of the full screen: of about 5,500 compounds, about 2,000 (36%) were called active. Not shown: some 18% with an inconclusive outcome. Some of the results follow.
measurementKind: normalized growth
One number for each entry.

INSERT INTO measurements (molecule, measurementkind, observedvalue) VALUES
  ('NC(N)=NCCN1CCCCCCC1', 'normalized growth', 1.02),
  ('O=c1[nH]c(=O)n(C2C[C@H](O)[C@@H](CO)O2)cc1C(F)(F)F (stereo partly specified)', 'normalized growth', 0.944),
  ('CCCNC(=O)NS(=O)(=O)c1ccc(Cl)cc1', 'normalized growth', 1.03),
  ('CN[C@@H]1C(OC2[C@H](O[C@H]3[C@H](O)[C@@H](O)[C@H](N=C(N)N)[C@@H](O)[C@@H]3N=C(N)N)OC(C)[C@]2(O)CO)OC(CO)C(O)C1O (stereo partly specified)', 'normalized growth', 1.02),
  ('Fc1ccc([C@@H]2CCNC[C@H]2COc2ccc3c(c2)OCO3)cc1', 'normalized growth', 1.03),
  ('NC(N)=NCCCCN=C(N)N', 'normalized growth', 1.01);

Below are some molecules; for each one, tell me its normalized growth.
1. CC(=O)OCC(=O)[C@@]1(O)CCC2C3CCC4=CC(=O)C=CC4(C)C3[C@@H](O)C[C@@]21C (stereo partly specified)
2. COc1ccnc(CS(=O)c2nc3ccc(OC(F)F)cc3[nH]2)c1OC (stereo unspecified)

// result
[1.01, 1.03]

Below are some molecules; for each one, tell me its normalized growth.
1. COc1ccc2nc(S(=O)Cc3ncc(C)c(OC)c3C)[nH]c2c1 (stereo unspecified)
2. CN(C)C(=O)Oc1ccc[n+](C)c1
3. O=C(O)COc1ccc(Cl)cc1Cl

// result
[1, 1.01, 0.983]
